Cited source for all entries: PubChem BioAssay AID1347423

- ASSAY_PROCEDURE: Resistance to Poly (ADP-Ribose) Polymerase inhibitor: Gene Identification via Genome-wide siRNA Screen
- RUN_CONDITIONS: mouse BRCA2 R2336H ES cells, olaparib, CellTiter-Glo viability; hits give high values
About 210 (0.4%) of roughly 52,000 sequences were called active. This excerpt belongs to a sample that is enriched for actives.
PARAMETER: z-score
Output spec: single numeric token, no unit.

[
  {
    "POLYMER_SEQUENCE": "GGUUCACCUGUCAAGUGGATT against Hfe",
    "MEASURED_NUMBER": 0.781
  },
  {
    "POLYMER_SEQUENCE": "GGUCACGUGCAGUUAUAUCTT against Rab32",
    "MEASURED_NUMBER": 0.0398
  }
]

# context switch: different sequence, same z-score
Request: Record request: z-score value, item GGUACCUGUUUGUUUUACATT against Epb4.1l4b
Response: 5.02
